Test system: Influenza A USSR/90(H1 N1)
Assay: Anti-Influenza Activity (Hemadsorption Assay), Influenza A USSR/90
Type: cell-based
Conditions: Conc. 10-100 μg/ml
value kind: % Inhibition of Hemadsorption Foci (%)

[
  {
    "compound": "OCCn1cnc2c(S)ncnc21",
    "u": "%",
    "readout value": 65
  },
  {
    "compound": "CC(=O)Nc1ccc(C(=O)O)cc1.CC(O)CN(C)C [compound 15110, reference compound]",
    "u": "%",
    "readout value": 0
  },
  {
    "compound": "CC(CO)n1cnc2c(N)ncnc21 (centres unmarked)",
    "u": "%",
    "readout value": 41
  },
  {
    "compound": "CCCCCCC(CO)n1cnc2c(=O)[nH]cnc21 (centres unmarked)",
    "u": "%",
    "readout value": 46
  },
  {
    "compound": "CCCCCC[C@H]([C@H](C)O)n1cnc2c(=O)[nH]cnc21 (relative stereo)",
    "u": "%",
    "readout value": 96
  }
]
